tested_system: T1, human LILRB2 expressed on cells (human, UniProt Q8N423 22-597)
T1 construct: In 293T cells it was expressed from pCMV3-LILRB2-GFP; also called CHO-LILRB2; Jurkat-LILRB2
T1 sequence (Q8N423 other isoform, or with tags, fused parts or gaps limits assumed): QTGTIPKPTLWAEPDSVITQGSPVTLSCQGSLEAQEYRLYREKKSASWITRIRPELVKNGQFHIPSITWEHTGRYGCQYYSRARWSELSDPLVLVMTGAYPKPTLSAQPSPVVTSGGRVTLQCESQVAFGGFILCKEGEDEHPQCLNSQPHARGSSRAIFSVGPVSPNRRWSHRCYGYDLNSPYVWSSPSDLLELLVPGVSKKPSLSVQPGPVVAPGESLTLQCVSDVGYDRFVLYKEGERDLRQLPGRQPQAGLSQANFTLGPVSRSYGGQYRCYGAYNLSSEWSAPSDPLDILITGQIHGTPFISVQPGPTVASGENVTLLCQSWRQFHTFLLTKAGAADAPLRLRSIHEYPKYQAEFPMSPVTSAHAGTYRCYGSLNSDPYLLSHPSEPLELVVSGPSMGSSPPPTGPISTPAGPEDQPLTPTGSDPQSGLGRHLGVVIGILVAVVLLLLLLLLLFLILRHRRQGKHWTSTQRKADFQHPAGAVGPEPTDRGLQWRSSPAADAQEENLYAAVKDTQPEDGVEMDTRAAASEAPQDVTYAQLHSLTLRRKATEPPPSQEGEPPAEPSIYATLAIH
test_protocol: flow cytometry, CHO-LILRB2 cells
test_readout: gMFI (max)
Please respond with just the number, no unit label.

| binder | gMFI (max) |
| --- | --- |
| Anti-LILRB2 antibody 1E1(QE) (antibody, human IgG4 S228P, lambda, V domains shown) VH: EVQLQQWGAGLLKPSETLSLTCAVYGGSFSGYYWSWIRQPPGKGLEWIGEINHSGSTNYNPSLKSRVTISVDTSKNQFSLKLSSVTAADTAVYYCARLPTRWVTTRYFDLWGRGTLVTVSS VL: ESVLTQPPSVSGAPGQRVTISCTGSSSNIGAGYDVHWYQQLPGTAPKLLIYGNSNRPSGVPDRFSVSKSGASASLAITGLQAEDEADYYCQSFDNSLSAYVFGGGTQLTVLG | 11800 |
| #8 (antibody, human IgG1, V domains shown, also called D2M002-008) VH: EVQLQQPGAELMKPGASVKISCKATGYTFSSSWTEWVKQRPGHGLEWIGEILPGSGSTNYNEKFKGKATFTADTSSNTAYMQLSSLTSEDSAVYYCARSGAGGYDSGAFAYWGQGTLVTVSA VL: DIVLTQSPASLAVSLGQRATISCRASESIDTYGNSFMHWYQQKPGQPPKLLIYRTSNLESGIPARFSGSGSRTDFTLTINPVEADDVATYYCQQSNEDPWTFGGGTKLEIK | 24800 |

Alright, here's another binder for you.
Lookup result for #1 (antibody, human IgG1, V domains shown, also called D2M002-001) VH: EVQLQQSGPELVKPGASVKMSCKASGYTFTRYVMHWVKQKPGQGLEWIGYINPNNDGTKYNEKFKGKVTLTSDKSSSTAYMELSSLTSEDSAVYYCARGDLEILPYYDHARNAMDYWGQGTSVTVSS VL: DIVMTQSPASQSASLGESVIITCRASGNIHNYLAWYQQKQGKSPQLLVYNAKTLADGVPSRFSGSGSGTQYSLKINSLQPEDFGTYYCQHFWSSPPTFGGGTKLELK ; measured gMFI (max): 16300
